Parameter Max Inhibition: see the listing below.
System: human colon cancer LoVo cells
Experiment: Cell proliferation inhibition assay (CellTiter-Glo)
Format: cell-based
Conditions: LoVo cells, 96 hours, CellTiter-Glo
Could you give me the number in %? Just the number is fine.

Here's what some known entries look like.
INSERT INTO assay_data (structurenotation, experimentalsystem, u, reportedvalue) VALUES
  ('C[C@@H]1COCCN1c1cc(-c2cncc3[nH]ccc23)nc2c1ccn2S(C)(=O)=O', 'human colon cancer LoVo cells', '%', 93),
  ('C[C@@H]1COCCN1c1nc(-c2ccnc3[nH]ccc23)nc2c1ncn2S(C)(=O)=O', 'human colon cancer LoVo cells', '%', 93),
  ('COc1cc(-c2nc(N3CCOC[C@H]3C)c3ccn(S(C)(=O)=O)c3n2)c2cc[nH]c2c1', 'human colon cancer LoVo cells', '%', 95),
  ('C[C@@H]1COCCN1c1cc(-c2ccnc3[nH]ccc23)nc2c1ncn2S(C)(=O)=O', 'human colon cancer LoVo cells', '%', 92);

Fill in: Max Inhibition of `C[C@@H]1COCCN1c1nc(-c2cc(F)cc3[nH]ccc23)nc2c1ccn2S(C)(=O)=O` is ___
91

----------
Parameter Max Inhibition: see the listing below.
Tested on: human colon cancer LoVo cells
Experiment: Cell proliferation inhibition assay (CellTiter-Glo)
Assay type: cell-based
Conditions: LoVo cells, 96 hours, CellTiter-Glo
Could you give me the number in %? Just the number is fine.

Here's what some known entries look like.
INSERT INTO measurements (structurenotation, reportedvalue) VALUES
  ('C[C@@H]1COCCN1c1nc(-c2cncc3[nH]ccc23)nc2c1ccn2S(C)(=O)=O', 90),
  ('C[C@@H]1COCCN1c1nc(-c2cccc3[nH]ccc23)nc2c1ccn2S(C)(=O)=O', 92);

Fill in: Max Inhibition of `C[C@@H]1COCCN1c1cc(-c2cccc3[nH]ccc23)nc2c1ccn2S(C)(=O)=O` is ___
94

Next compound up: `CCS(=O)(=O)n1ccc2c(N3CCOC[C@H]3C)nc(-c3ccnc4[nH]ccc34)nc21`
92

Recorded values, source patent US12435095B2.
